tested on: Staphylococcus aureus; test: Antimicrobial activity against Staphylococcus aureus at 100 ug/ml by agar plate diffusion technique; format: functional; conditions: read-out: IZ

| molecular.string | zone of inhibition at 100 µg/mL / mm |
| --- | --- |
| CSc1nc(-c2ccccc2Cl)c(C#N)c(=O)n1C | 16.8 |
| CSc1nc(-c2cccc(O)c2O)c(C#N)c(=O)n1C | 13.6 |
| Cn1c(NN)nc(-c2ccccc2F)c(C#N)c1=O | 22.2 |
| Cn1c(NN)nc(-c2ccccc2O)c(C#N)c1=O | 17.7 |
| Cn1c(NN)nc(-c2ccco2)c(C#N)c1=O | 12.2 |
| CCOC(=O)c1cnn(-c2nc(-c3ccccc3F)c(C#N)c(=O)n2C)c1N | 26.7 |
